assay: Cytotoxicity, MTT or WST-8 cell proliferation assay; conditions: human, A549 cells, CC50, Table 3
Parameter: CC50 at 42 h (µM)
Answers are plain numbers, in µM.

Using the record for CC(=O)Oc1ccccc1C(=O)Nc1ncc([N+](=O)[O-])s1 [Nitazoxanide] , report its CC50 at 42 h.
77

---

test system: WNV; assay: microbe, parasite or virus in culture; assay type: cell-based, West Nile virus; settings: West Nile virus, A549; WNV; read-out: EC50
Parameter: EC50 (nM)
Answers are plain numbers, in nM.

Using the record for O=C(Nc1ccc([N+](=O)[O-])cc1Cl)c1cc(Cl)ccc1O [Niclosamide] , report its EC50.
540

---

molecular target: NS2B-NS3 interactions (Nluc-E66stop/GCN) (Dengue virus type 2); experiment: biochemical; format: binding, DENV2
Sequence (P29990 1476-1660 limits assumed): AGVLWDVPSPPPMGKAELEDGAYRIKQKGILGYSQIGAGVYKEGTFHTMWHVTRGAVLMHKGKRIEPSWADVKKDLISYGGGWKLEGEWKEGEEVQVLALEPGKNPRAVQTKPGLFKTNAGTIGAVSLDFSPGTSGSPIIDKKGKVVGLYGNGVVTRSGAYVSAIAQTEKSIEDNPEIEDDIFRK
Counter-ions that a name gives are not always drawn.
Parameter: pIC50
Answers are plain numbers, as −log10 of the molar value.

{"Compound": "CS(=O)(=O)c1ccc(-c2cn3ccccc3n2)cc1", "Subject Of Test": "NS2B-NS3 interactions (Nluc-E66stop/GCN) (Dengue virus type 2)", "Recorded Result": 4.92}
{"Compound": "Nc1ccc(/N=N/c2ccccc2)c(N)n1 [Phenazopyridine hydrochloride]", "Subject Of Test": "NS2B-NS3 interactions (Nluc-E66stop/GCN) (Dengue virus type 2)", "Recorded Result": 4.88}

Switching to the query record.
Using the record for CNC(=O)c1ccccc1Sc1ccc2c(/C=C/c3ccccn3)n[nH]c2c1 , report its pIC50.
5.28
